Assay: Selectivity index, ratio of IC50 for human FR2 cells to IC50 for human A549 cells
Assay type: functional
Exercise: for every item that follows, state its recorded Ratio IC50.
Numbers only.

Example compounds with recorded Ratio IC50:
>  <smilesStructure>
C=C(C)[C@@H]1CC[C@]2(C(=O)O)CC[C@]3(C)[C@H](CC[C@@H]4[C@@]5(C)C/C(=C\c6ccc(F)c(Br)c6)[C@H](O)C(C)(C)[C@@H]5CC[C@]43C)[C@@H]12

>  <resultNumber>
5.253

$$$$
>  <smilesStructure>
C=C(C)[C@@H]1CC[C@]2(C(=O)O)CC[C@]3(C)[C@H](CC[C@@H]4[C@@]5(C)C/C(=C\c6cccnc6)C(=O)C(C)(C)[C@@H]5CC[C@]43C)[C@@H]12

>  <resultNumber>
32.25

$$$$
>  <smilesStructure>
C=C(C)[C@@H]1CC[C@]2(C(=O)O)CC[C@]3(C)[C@H](CC[C@@H]4[C@@]5(C)C/C(=C\c6ccc([N+](=O)[O-])cc6)[C@H](O)C(C)(C)[C@@H]5CC[C@]43C)[C@@H]12

>  <resultNumber>
11.2

$$$$

Hi! Can you tell me Ratio IC50 for each of these compounds?
1. C=C(C)[C@@H]1CC[C@]2(C(=O)O)CC[C@]3(C)[C@H](CC[C@@H]4[C@@]5(C)C/C(=C\c6ccc(OC)cc6)C(=O)C(C)(C)[C@@H]5CC[C@]43C)[C@@H]12
2. C=C(C)[C@@H]1CC[C@]2(C(=O)O)CC[C@]3(C)[C@H](CC[C@@H]4[C@@]5(C)C/C(=C\c6ccc(F)c(Br)c6)C(=O)C(C)(C)[C@@H]5CC[C@]43C)[C@@H]12

A.
1: 4.696; 2: 12.09

* * *

System: MIA PaCa-2
Experiment: Growth inhibition of human MIAPaCa2 at 10 uM after 48 hrs by SRB assay relative to control
Assay type: functional
Details: MIA PaCa-2, 48 h, read-out: GI
I'd be grateful if you could share measured inhibition of growth at 10 µM for these entries.
Numbers only, in %.

>  <smilesStructure>
C=C(C)[C@@H]1CC[C@]2(C(=O)O)CC[C@]3(C)[C@H](CC[C@@H]4[C@@]5(C)C/C(=C\c6cccc7ccccc67)C(=O)C(C)(C)[C@@H]5CC[C@]43C)[C@@H]12

>  <unitName>
%

>  <resultNumber>
64

$$$$

Each molecule below has a reported value. Please supply its inhibition of growth at 10 µM.
1. C=C(C)[C@@H]1CC[C@]2(C(=O)O)CC[C@]3(C)[C@H](CC[C@@H]4[C@@]5(C)C/C(=C\c6ccsc6)[C@H](O)C(C)(C)[C@@H]5CC[C@]43C)[C@@H]12
2. C=C(C)[C@@H]1CC[C@]2(C(=O)O)CC[C@]3(C)[C@H](CC[C@@H]4[C@@]5(C)C/C(=C\c6ccc([N+](=O)[O-])cc6)[C@H](O)C(C)(C)[C@@H]5CC[C@]43C)[C@@H]12

A.
1. 70
2. 81

* * *

Tested on: MIA PaCa-2
Assay: Growth inhibition of human MIAPaCa2 at 10 uM after 48 hrs by SRB assay relative to control
Type: functional
Conditions: MIA PaCa-2, 48 h, read-out: GI
quantityKind: inhibition of growth at 10 µM
Your answer should be a number followed by the unit of measure.

Some compounds with recorded inhibition of growth at 10 µM:
>  <smilesStructure>
C=C(C)[C@@H]1CC[C@]2(C(=O)O)CC[C@]3(C)[C@H](CC[C@@H]4[C@@]5(C)C/C(=C\c6c(Cl)cccc6Cl)[C@H](O)C(C)(C)[C@@H]5CC[C@]43C)[C@@H]12

>  <quantityKind>
inhibition of growth at 10 µM

>  <result>
38%

$$$$
>  <smilesStructure>
C=C(C)[C@@H]1CC[C@]2(C(=O)O)CC[C@]3(C)[C@H](CC[C@@H]4[C@@]5(C)C/C(=C\c6cc(Br)ccc6OC)C(=O)C(C)(C)[C@@H]5CC[C@]43C)[C@@H]12

>  <quantityKind>
inhibition of growth at 10 µM

>  <result>
28%

$$$$

Note: attention shifts to another entry.
Q. Query inhibition of growth at 10 µM for "C=C(C)[C@@H]1CC[C@]2(C(=O)O)CC[C@]3(C)[C@H](CC[C@@H]4[C@@]5(C)C/C(=C\c6ccc(Br)cc6)[C@H](O)C(C)(C)[C@@H]5CC[C@]43C)[C@@H]12"
A. 48%

* * *

System: MIA PaCa-2
Experiment: Growth inhibition of human MIAPaCa2 at 10 uM after 48 hrs by SRB assay relative to control
Type: functional
Conditions: MIA PaCa-2, 48 h, read-out: GI
For each record, write down the corresponding inhibition of growth at 10 µM.
Give bare numbers, in %.

Examples from the recorded data:
>  <smilesStructure>
C=C(C)[C@@H]1CC[C@]2(C(=O)O)CC[C@]3(C)[C@H](CC[C@@H]4[C@@]5(C)C/C(=C\c6ccc(F)c(Br)c6)[C@H](O)C(C)(C)[C@@H]5CC[C@]43C)[C@@H]12

>  <quantityKind>
inhibition of growth at 10 µM

>  <resultNumber>
40

$$$$
>  <smilesStructure>
C=C(C)[C@@H]1CC[C@]2(C(=O)O)CC[C@]3(C)[C@H](CC[C@@H]4[C@@]5(C)C/C(=C\c6cccnc6)[C@H](O)C(C)(C)[C@@H]5CC[C@]43C)[C@@H]12

>  <quantityKind>
inhibition of growth at 10 µM

>  <resultNumber>
63

$$$$

Q. Answer with the recorded inhibition of growth at 10 µM for the compound listed here: "C=C(C)[C@@H]1CC[C@]2(C(=O)O)CC[C@]3(C)[C@H](CC[C@@H]4[C@@]5(C)C/C(=C\c6ccc(Br)o6)C(=O)C(C)(C)[C@@H]5CC[C@]43C)[C@@H]12"
A. 75

* * *

System: A549
Test: Cytotoxicity against human A549 cells assessed as reduction in cell viability after 48 hrs by SRB assay
Type: functional, cell-based
Details: A549, 48 h
Task for the reader: assign each of the following molecules its reported IC50.
Give bare numbers, in µM.

>  <smilesStructure>
C=C(C)[C@@H]1CC[C@]2(C(=O)O)CC[C@]3(C)[C@H](CC[C@@H]4[C@@]5(C)C/C(=C\c6cccc7ccccc67)C(=O)C(C)(C)[C@@H]5CC[C@]43C)[C@@H]12

>  <IC50 (µM)>
3.09

$$$$
>  <smilesStructure>
C=C(C)[C@@H]1CC[C@]2(C(=O)O)CC[C@]3(C)[C@H](CC[C@@H]4[C@@]5(C)C/C(=C\c6ccc(Br)cc6)[C@H](O)C(C)(C)[C@@H]5CC[C@]43C)[C@@H]12

>  <IC50 (µM)>
1.8

$$$$
>  <smilesStructure>
C=C(C)[C@@H]1CC[C@]2(C(=O)O)CC[C@]3(C)[C@H](CC[C@@H]4[C@@]5(C)C/C(=C/C=C/c6ccccc6)C(=O)C(C)(C)[C@@H]5CC[C@]43C)[C@@H]12

>  <IC50 (µM)>
3.4

$$$$

Q. Give reported IC50 value for "C=C(C)[C@@H]1CC[C@]2(C(=O)O)CC[C@]3(C)[C@H](CC[C@@H]4[C@@]5(C)C/C(=C\c6ccc(OC)cc6)[C@H](O)C(C)(C)[C@@H]5CC[C@]43C)[C@@H]12"
A. 4.3

* * *

System: A549
Assay: Cytotoxicity against human A549 cells assessed as reduction in cell viability after 48 hrs by SRB assay
Type: functional, cell-based
Settings: A549, 48 h
quantityKind: pIC50
Answers are plain numbers, as −log10 of the molar value.

Below: 5 molecules and their reported pIC50.
>  <smilesStructure>
C=C(C)[C@@H]1CC[C@]2(C(=O)O)CC[C@]3(C)[C@H](CC[C@@H]4[C@@]5(C)C/C(=C\c6ccc([N+](=O)[O-])cc6)C(=O)C(C)(C)[C@@H]5CC[C@]43C)[C@@H]12

>  <resultNumber>
5.82

$$$$
>  <smilesStructure>
C=C(C)[C@@H]1CC[C@]2(C(=O)O)CC[C@]3(C)[C@H](CC[C@@H]4[C@@]5(C)C/C(=C\c6c(Cl)cccc6Cl)C(=O)C(C)(C)[C@@H]5CC[C@]43C)[C@@H]12

>  <resultNumber>
5.11

$$$$
>  <smilesStructure>
C=C(C)[C@@H]1CC[C@]2(C(=O)O)CC[C@]3(C)[C@H](CC[C@@H]4[C@@]5(C)C/C(=C\c6cc(Br)ccc6OC)[C@H](O)C(C)(C)[C@@H]5CC[C@]43C)[C@@H]12

>  <resultNumber>
5.55

$$$$
>  <smilesStructure>
C=C(C)[C@@H]1CC[C@]2(C(=O)O)CC[C@]3(C)[C@H](CC[C@@H]4[C@@]5(C)C/C(=C\c6ccccc6Br)C(=O)C(C)(C)[C@@H]5CC[C@]43C)[C@@H]12

>  <resultNumber>
5.21

$$$$
>  <smilesStructure>
C=C(C)[C@@H]1CC[C@]2(C(=O)O)CC[C@]3(C)[C@H](CC[C@@H]4[C@@]5(C)C/C(=C\c6cccc([N+](=O)[O-])c6)C(=O)C(C)(C)[C@@H]5CC[C@]43C)[C@@H]12

>  <resultNumber>
5.33

$$$$

Please give pIC50, item by item, for the list that follows.
1. C=C(C)[C@@H]1CC[C@]2(C(=O)O)CC[C@]3(C)[C@H](CC[C@@H]4[C@@]5(C)C/C(=C\c6ccc(Br)cc6)C(=O)C(C)(C)[C@@H]5CC[C@]43C)[C@@H]12
2. C=C(C)[C@@H]1CC[C@]2(C(=O)O)CC[C@]3(C)[C@H](CC[C@@H]4[C@@]5(C)C/C(=C\c6cc(Br)ccc6OC)C(=O)C(C)(C)[C@@H]5CC[C@]43C)[C@@H]12
3. C=C(C)[C@@H]1CC[C@]2(C(=O)O)CC[C@]3(C)[C@H](CC[C@@H]4[C@@]5(C)C/C(=C\c6cccnc6)[C@H](O)C(C)(C)[C@@H]5CC[C@]43C)[C@@H]12
4. C=C(C)[C@@H]1CC[C@]2(C(=O)O)CC[C@]3(C)[C@H](CC[C@@H]4[C@@]5(C)C/C(=C\c6ccc(F)c(Br)c6)[C@H](O)C(C)(C)[C@@H]5CC[C@]43C)[C@@H]12
5. C=C(C)[C@@H]1CC[C@]2(C(=O)O)CC[C@]3(C)[C@H](CC[C@@H]4[C@@]5(C)C/C(=C\c6ccc([N+](=O)[O-])cc6)[C@H](O)C(C)(C)[C@@H]5CC[C@]43C)[C@@H]12

A.
[5.77, 5.77, 5.47, 5.31, 5.82]
